Target: T1, Flag-tagged ETS1_(331–441), P14921
T1 chain: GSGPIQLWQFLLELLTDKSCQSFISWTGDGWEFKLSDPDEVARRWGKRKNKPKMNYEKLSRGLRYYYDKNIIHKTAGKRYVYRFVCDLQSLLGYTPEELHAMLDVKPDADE
Test: FLAG pull-down, band densitometry
Conditions: chain shown with the change;; parent: est. 1.0; read off a plot
Measured ratio to parent by item
Simply state the number, no unit and no words.

# annotated cases, reported ratio to parent shown
p52-RHD (residues 35–329), Q00653 R241A (protein) ADGPYLVIVEQPKQRGFRFRYGCEGPSHGGLPGASSEKGRKTYPTVKICNYEGPAKIEVDLVTHSDPPRAHAHSLVGKQCSELGICAVSVGPKDMTAQFNNLGVLHVTKKNMMGTMIQKLQRQRLRSRPQGLTEAEQRELEQEAKELKKVMDLSIVRLRFSAFLRASDGSFSLPLKPVISQPIHDSKSPGASNLKISRMDKTAGSVAGGDEVYLLCDKVQKDDIEVRFYEDDENGWQAFGDFSPTDVHKQYAIVFRTPPYHKMKIERPVTVFLQLKRKRGGDVSDSKQFTYYPLV | 0.51
p52-RHD (residues 35–329), Q00653 K298A (protein) ADGPYLVIVEQPKQRGFRFRYGCEGPSHGGLPGASSEKGRKTYPTVKICNYEGPAKIEVDLVTHSDPPRAHAHSLVGKQCSELGICAVSVGPKDMTAQFNNLGVLHVTKKNMMGTMIQKLQRQRLRSRPQGLTEAEQRELEQEAKELKKVMDLSIVRLRFSAFLRASDGSFSLPLKPVISQPIHDSKSPGASNLKISRMDKTAGSVRGGDEVYLLCDKVQKDDIEVRFYEDDENGWQAFGDFSPTDVHKQYAIVFRTPPYHKMAIERPVTVFLQLKRKRGGDVSDSKQFTYYPLV | 0.69

Now for another entry.
// ratio to parent lookup, binder = p52-RHD (residues 35–329), Q00653 M297A (protein) ADGPYLVIVEQPKQRGFRFRYGCEGPSHGGLPGASSEKGRKTYPTVKICNYEGPAKIEVDLVTHSDPPRAHAHSLVGKQCSELGICAVSVGPKDMTAQFNNLGVLHVTKKNMMGTMIQKLQRQRLRSRPQGLTEAEQRELEQEAKELKKVMDLSIVRLRFSAFLRASDGSFSLPLKPVISQPIHDSKSPGASNLKISRMDKTAGSVRGGDEVYLLCDKVQKDDIEVRFYEDDENGWQAFGDFSPTDVHKQYAIVFRTPPYHKAKIERPVTVFLQLKRKRGGDVSDSKQFTYYPLV , result: 0.72
